Where these numbers come from: patent US10988477B2

target under test: GCN2 kinase (Homo sapiens, UniProt Q9P2K8)
Sequence (Q9P2K8 whole entry): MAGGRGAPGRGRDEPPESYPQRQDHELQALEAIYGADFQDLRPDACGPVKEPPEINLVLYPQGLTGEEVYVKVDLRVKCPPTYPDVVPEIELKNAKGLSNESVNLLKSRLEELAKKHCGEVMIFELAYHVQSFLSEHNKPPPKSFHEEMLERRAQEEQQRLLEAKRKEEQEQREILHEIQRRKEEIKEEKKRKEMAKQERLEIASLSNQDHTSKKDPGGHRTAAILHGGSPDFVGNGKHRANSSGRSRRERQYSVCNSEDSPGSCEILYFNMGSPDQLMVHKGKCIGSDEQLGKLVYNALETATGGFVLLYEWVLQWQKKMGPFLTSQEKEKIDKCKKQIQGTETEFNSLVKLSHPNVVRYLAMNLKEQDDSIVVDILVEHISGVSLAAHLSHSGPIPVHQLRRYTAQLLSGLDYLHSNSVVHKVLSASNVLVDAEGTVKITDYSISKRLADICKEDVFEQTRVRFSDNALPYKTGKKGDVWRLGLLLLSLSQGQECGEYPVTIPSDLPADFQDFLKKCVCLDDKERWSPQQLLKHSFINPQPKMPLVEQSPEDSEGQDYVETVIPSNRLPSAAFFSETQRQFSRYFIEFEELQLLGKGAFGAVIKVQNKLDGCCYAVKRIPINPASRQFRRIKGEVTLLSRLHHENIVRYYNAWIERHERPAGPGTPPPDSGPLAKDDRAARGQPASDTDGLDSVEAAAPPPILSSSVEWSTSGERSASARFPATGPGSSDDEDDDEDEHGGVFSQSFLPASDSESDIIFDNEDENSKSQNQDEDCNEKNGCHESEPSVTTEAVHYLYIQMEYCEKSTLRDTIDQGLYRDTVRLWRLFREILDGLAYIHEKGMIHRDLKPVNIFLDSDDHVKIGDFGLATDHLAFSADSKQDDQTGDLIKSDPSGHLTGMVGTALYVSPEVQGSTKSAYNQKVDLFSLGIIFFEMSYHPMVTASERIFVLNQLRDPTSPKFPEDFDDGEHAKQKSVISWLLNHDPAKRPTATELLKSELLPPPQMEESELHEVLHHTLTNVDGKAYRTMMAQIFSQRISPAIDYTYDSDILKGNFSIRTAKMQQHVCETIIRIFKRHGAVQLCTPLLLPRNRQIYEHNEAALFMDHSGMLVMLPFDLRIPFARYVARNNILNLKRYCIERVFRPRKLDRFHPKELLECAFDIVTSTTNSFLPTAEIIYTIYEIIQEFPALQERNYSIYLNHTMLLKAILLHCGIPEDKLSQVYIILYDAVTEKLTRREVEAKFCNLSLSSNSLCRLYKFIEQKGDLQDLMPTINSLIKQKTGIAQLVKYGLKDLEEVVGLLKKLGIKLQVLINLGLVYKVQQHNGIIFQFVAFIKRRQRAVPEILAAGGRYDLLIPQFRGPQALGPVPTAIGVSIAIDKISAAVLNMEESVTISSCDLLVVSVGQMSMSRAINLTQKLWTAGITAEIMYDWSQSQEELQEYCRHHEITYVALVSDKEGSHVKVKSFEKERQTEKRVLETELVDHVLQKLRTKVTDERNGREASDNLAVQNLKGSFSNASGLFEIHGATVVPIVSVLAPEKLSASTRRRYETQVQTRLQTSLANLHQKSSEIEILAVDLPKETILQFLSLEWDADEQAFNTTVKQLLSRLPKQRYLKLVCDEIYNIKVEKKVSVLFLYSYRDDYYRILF
protocol description: GCN2 enzyme inhibition assay (Transcreener ADP2 fluorescence polarization)
Assay type: biochemical
applied conditions: compounds of Formula II; 280 μM ATP, 4 nM GCN2 kinase
pKi: −log10 of the molar value.
recorded metric: pKi

Data request, read-out pKi, for CS(=O)(=O)NCC1CCCN(c2cc(-c3cnc4ccc(C(F)F)nn34)cc(N3CCNCC3)n2)C1 (stereo not shown)
> 8.00

Another compound to look at: Cc1ncc(-c2cnc3ccc(C(F)F)nn23)cc1N1CCC12CCN(S(C)(=O)=O)CC2
6.00 to 8.00

Another compound to look at: CC1CN(c2ccnc(-c3cnc4ccc(C(F)F)nn34)c2)CC(CNS(C)(=O)=O)C1(F)F (stereo not shown)
> 8.00

Another compound to look at: CS(=O)(=O)NCC1CC(O)CN(c2cc(-c3cnc4ccc(C(F)F)nn34)ccn2)C1 (stereo not shown) [II-39]
6.00 to 8.00

Another compound to look at: C[C@H]1[C@@H](C[S@@](C)(=N)=O)CCCN1c1cc(-c2cnc3ccc(C(F)F)nn23)ncn1
> 8.00

Another compound to look at: C[C@@H]1CO[C@H](CNS(C)(=O)=O)CN1c1cc(-c2cnc3ccc(C(F)F)nn23)ncn1
> 8.00

Another compound to look at: COc1cc(-c2cnc3ccc(C(F)F)nn23)cc(N2CCCC(CNS(C)(=O)=O)C2)n1 (stereo not shown)
> 8.00

Another compound to look at: COC1CC(CNS(C)(=O)=O)CN(c2cc(-c3cnc4ccc(C(F)F)nn34)ncn2)C1 (stereo not shown) [II-198]
6.00 to 8.00

Another compound to look at: CC(=O)NC1CCN(c2cc(-c3cnc4ccc(-c5cccnc5)nn34)ccn2)CC1
< 6.00

Another compound to look at: CC1CN(c2cc(-c3cnc4ccc(C(F)F)nn34)ncn2)CC(CO)O1 (stereo not shown) [II-615]
6.00 to 8.00

Another compound to look at: CC1C(N=S(C)(C)=O)CCCN1c1cc(-c2cnc3ccc(C(F)F)nn23)ncn1 (single isomer, unassigned) [II-581]
6.00 to 8.00

Another compound to look at: CC(NS(C)(=O)=O)C1CCCN(c2cc(-c3cnc4ccc(C(F)F)nn34)ccn2)C1 (stereo not shown) [II-134]
6.00 to 8.00

Another compound to look at: CC1CN(c2cc(-c3cnc4ccc(C(F)F)nn34)ccn2)CC(CNS(C)(=O)=O)C1(F)F (stereo not shown) [II-58]
> 8.00

Another compound to look at: CC1(F)CCN(c2cc(-c3cnc4ccc(C(F)F)nn34)ncn2)CC1CNS(C)(=O)=O (single isomer, unassigned) [II-388]
6.00 to 8.00

Another compound to look at: CC1C(CNS(C)(=O)=O)C(F)(F)CCN1c1cc(-c2cnc3ccc(C(F)F)nn23)ncn1 (single isomer, unassigned) [II-302]
6.00 to 8.00

Another compound to look at: CC1C(CNS(C)(=O)=O)OCCN1c1cc(-c2cnc3ccc(C(F)F)nn23)ncn1 (single isomer, unassigned) [II-371]
> 8.00

* * *

Kindly supply the reported Ki values for the records listed here.
target under test: GCN2 kinase (Homo sapiens, UniProt Q9P2K8)
protocol description: GCN2 enzyme inhibition assay (Transcreener ADP2 fluorescence polarization)
Format: biochemical
applied conditions: compounds of Formula II; 280 μM ATP, 4 nM GCN2 kinase

Data request, read-out Ki, for CS(C)(=O)=NC1CCCN(c2cc(-c3cnc4ccc(C(F)F)nn34)ncn2)C1C(F)F (centres unmarked) [II-701]
10 to 1000 nM

Another molecule to look at: CS(=O)(=O)N(O)CC1CN(c2cc(-c3cnc4ccc(C(F)F)nn34)ccn2)CCC1(F)F (centres unmarked)
< 10 nM

Another molecule to look at: CS(=O)(=O)NCC1CN(c2cc(-c3cnc4ccc(C(F)F)nn34)ncn2)c2ccccc21 (centres unmarked)
10 to 1000 nM

Another molecule to look at: CC1CN(c2cc(-c3cnc4ccc(C(F)(F)F)nn34)ncn2)CC(CNS(C)(=O)=O)C1(F)F (centres unmarked) [II-293]
10 to 1000 nM

Another molecule to look at: CN1CCN(c2cc(-c3cnc4ccc(C(F)F)nn34)ccn2)CC1CO (centres unmarked)
10 to 1000 nM

Another molecule to look at: CS(=O)(=O)CC1CCCN(c2cc(-c3cnc4ccc(C(F)(F)F)nn34)ccn2)C1 (centres unmarked)
10 to 1000 nM

Another molecule to look at: O=C(O)[C@@H]1CCCN(c2cc(-c3cnc4ccc(C(F)(F)F)nn34)ncn2)C1
10 to 1000 nM

Another molecule to look at: CC1CC(CNS(C)(=O)=O)CN(c2cc(-c3cnc4ccc(C(F)F)nn34)ncn2)C1C (centres unmarked) [II-591]
< 10 nM

* * *

Kindly supply the reported Ki values for the records listed here.
target under test: GCN2 kinase (Homo sapiens, UniProt Q9P2K8)
protocol description: GCN2 enzyme inhibition assay (Transcreener ADP2 fluorescence polarization)
Assay type: biochemical
applied conditions: compounds of Formula II; 280 μM ATP, 4 nM GCN2 kinase

Data request, read-out Ki, for CC(=O)N1CCN(c2cc(-c3cnc4ccc(OC(F)F)nn34)ccn2)CC1 [II-182]
10 to 1000 nM

Another compound to look at: CC(C)(O)C1CCCN(c2cc(-c3cnc4ccc(C(F)F)nn34)ncn2)C1 (single isomer, unassigned) [II-614]
10 to 1000 nM

Another compound to look at: CC(=O)N1CC2(C1)CN(c1cc(-c3cnc4ccc(C(F)F)nn34)cc(N3CCCC(CNS(C)(=O)=O)C3)n1)C2 (stereo not shown) [II-55]
< 10 nM

Another compound to look at: CS(=O)(=O)N1CCN(C(=O)C2CCCN(c3cc(-c4cnc5ccc(C(F)F)nn45)ncn3)C2)CC1 (stereo not shown) [II-206]
10 to 1000 nM

Another compound to look at: CC1CN(c2cc(-c3cnc4ccc(C(F)F)nn34)ncn2)CC1CNS(C)(=O)=O (stereo not shown) [II-238]
10 to 1000 nM

Another compound to look at: CC1C(CNS(C)(=O)=O)C(F)(F)CCN1c1cc(-c2cnc3ccc(C(F)F)nn23)ncn1 (single isomer, unassigned) [II-303]
10 to 1000 nM

Another compound to look at: CS(=O)(=O)NC1CCCN(c2cc(-c3cnc4ccc(C(F)(F)F)nn34)ccn2)C1 (stereo not shown) [II-231]
10 to 1000 nM

Another compound to look at: CS(=O)(=O)N1CC2CCN(c3cc(-c4cnc5ccc(C(F)F)nn45)ncn3)CC21 (stereo not shown) [II-181]
> 1000 nM

Another compound to look at: CC1CC(F)(F)C(CNS(C)(=O)=O)CN1c1cc(-c2cnc3ccc(C(F)F)nn23)ncn1 (stereo not shown) [II-434]
10 to 1000 nM

Another compound to look at: CCN1CCN(c2cc(-c3cnc4ccc(C(F)F)nn34)ncn2)C(C)C1CNS(C)(=O)=O (single isomer, unassigned) [II-542]
< 10 nM

Another compound to look at: CS(=O)(=O)NCC1CCCN(c2cc(-c3cnc4ccc(C(F)F)nn34)cnc2C#N)C1 (stereo not shown) [II-117]
10 to 1000 nM

Another compound to look at: CS(=O)(=O)CC1CCCN(c2cc(-c3cnc4ccc(C(F)F)nn34)ncn2)C1 (stereo not shown) [II-430]
10 to 1000 nM

Another compound to look at: CC(=O)N1CCN(c2cncc(-c3cnc4ccc(C(F)F)nn34)c2)CC1 [II-171]
10 to 1000 nM

Another compound to look at: CS(=O)(=O)NC[C@H]1CCCN(c2cc(-c3cnc4ccc(C(F)F)nn34)cc(O)n2)C1 [II-111]
< 10 nM

Another compound to look at: FC(F)c1ccc2ncc(-c3cc(N4CC5(COC5)C4)ncn3)n2n1 [II-252]
10 to 1000 nM

Another compound to look at: CC1CCN(c2cc(-c3cnc4ccc(C(F)F)nn34)ncn2)CC1N=S(C)(C)=O (single isomer, unassigned) [II-632]
10 to 1000 nM

* * *

target under test: intracellular GCN2 (phosphorylation of the GCN2 substrate eIF2α) (Homo sapiens, UniProt Q9P2K8)
Sequence (Q9P2K8 whole entry): as above
protocol description: GCN2 cellular inhibition assay (AlphaScreen SureFire P-eIF2α Ser51, borrelidin-treated U2OS cells)
Type: cell-based
applied conditions: compounds of Formula IV; biomarker assay, phosphorylated eIF2α Ser51 in borrelidin-treated U2OS cells
Kindly supply the reported IC50 values for the records listed here.

Data request, read-out IC50, for CC1C(c2cn[nH]c2)NCCN1c1ccnc(-c2cnc3cnc(Br)cn23)n1 (single isomer, unassigned) [IV-414]
< 0.5 µM

Another molecule to look at: Brc1cn2c(-c3nccc(N4CCCC(c5c[nH]cn5)C4)n3)cnc2cn1 (stereo not shown) [IV-340]
0.5 to 5 µM

Another molecule to look at: N#Cc1cn2c(-c3cccc(-c4cccc5[nH]ccc45)n3)cnc2cn1
> 5 µM

Another molecule to look at: CS(=O)(=O)Nc1cccc(-c2ccnc(-c3cnc4cnc(C(F)F)cn34)n2)c1
> 5 µM

Another molecule to look at: FC(F)c1cn2c(-c3nccc(N4CCC(c5ccncc5)C4)n3)cnc2cn1 (stereo not shown)
> 5 µM

Another molecule to look at: CC(=O)N1CCN(c2ccnc(-c3cnc4cnc(C5CC5)cn34)n2)CC1
> 5 µM

Another molecule to look at: CC(=O)N1CCN(c2cccc(-c3cnc4cnccn34)n2)CC1
> 5 µM

Another molecule to look at: CCN1CCN(c2ccnc(-c3cnc4cnc(Br)cn34)n2)[C@@H](C)[C@H]1c1cn[nH]c1 (single isomer, unassigned) [IV-401]
0.5 to 5 µM

Another molecule to look at: NC(=O)C1CN(c2ccnc(-c3cnc4cnc(C(F)F)cn34)n2)CCO1 (stereo not shown)
> 5 µM

Another molecule to look at: NC(=O)Cc1cccc(-c2ccnc(-c3cnc4cnc(C(F)F)cn34)n2)c1
> 5 µM

Another molecule to look at: Cc1n[nH]c(C)c1C1CN(c2ccnc(-c3cnc4cnc(C(F)(F)F)cn34)n2)CC(C)N1 (single isomer, unassigned) [IV-465]
0.5 to 5 µM

Another molecule to look at: CC1CC(c2cn[nH]c2)C(C)N(c2ccnc(-c3cnc4cnc(C(F)(F)F)cn34)n2)C1 (single isomer, unassigned)
< 0.5 µM

Another molecule to look at: CC1CN(c2ccnc(-c3cnc4cnc(C(F)(F)F)cn34)n2)CC(c2cn[nH]c2)N1 (single isomer, unassigned) [IV-461]
0.5 to 5 µM

Another molecule to look at: O=C1NCC2CN(c3ccnc(-c4cnc5cnc(C(F)(F)F)cn45)n3)CCN12 (stereo not shown)
> 5 µM

Another molecule to look at: Brc1cn2c(-c3nccc(N4CCCC(c5c[nH]cn5)C4)n3)cnc2cn1 (single isomer, unassigned) [IV-362]
0.5 to 5 µM

Another molecule to look at: C[C@H]1CN(c2ccnc(-c3cnc4cnc(C(F)F)cn34)n2)C[C@@H](CNS(C)(=O)=O)C1(F)F
> 5 µM
